molecular target: T1, human SIRPα v1 on CHOK1 cells (human, UniProt P78324 31-504); test: FACS, CHOK1 cells stably expressing human SIRPα v1
T1 construct: whole, on cells; also called CHOK1-hSIRPα v1; cell surface human SIRPα v1
T1 sequence (P78324 31-504): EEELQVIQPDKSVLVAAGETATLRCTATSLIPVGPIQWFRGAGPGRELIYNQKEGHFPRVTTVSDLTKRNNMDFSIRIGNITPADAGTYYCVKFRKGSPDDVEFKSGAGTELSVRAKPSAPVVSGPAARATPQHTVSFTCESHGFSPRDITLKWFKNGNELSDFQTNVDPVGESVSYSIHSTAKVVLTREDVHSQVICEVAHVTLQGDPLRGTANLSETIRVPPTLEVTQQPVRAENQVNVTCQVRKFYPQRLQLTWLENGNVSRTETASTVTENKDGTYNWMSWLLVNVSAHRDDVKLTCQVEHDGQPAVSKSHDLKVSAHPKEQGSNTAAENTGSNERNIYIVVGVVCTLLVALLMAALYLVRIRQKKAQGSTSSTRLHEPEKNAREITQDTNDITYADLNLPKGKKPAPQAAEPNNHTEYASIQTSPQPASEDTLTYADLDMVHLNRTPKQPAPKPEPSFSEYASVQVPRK
Kindly supply the reported TOP MFI values for the records listed here.
Kindly provide the numeric value in MFI only, without the unit symbol.

Prompt: Supply TOP MFI value. Item: Humanized anti-SIRPα antibody hu025.033 (antibody, V domains shown, Humanized from C25) VH: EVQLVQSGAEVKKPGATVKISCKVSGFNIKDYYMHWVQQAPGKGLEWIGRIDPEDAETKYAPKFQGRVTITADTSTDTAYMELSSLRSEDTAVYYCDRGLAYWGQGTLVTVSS VL: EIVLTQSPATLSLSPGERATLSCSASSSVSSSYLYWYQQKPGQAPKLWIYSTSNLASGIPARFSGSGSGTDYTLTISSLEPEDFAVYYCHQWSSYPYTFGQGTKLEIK
Completion: 53800

Prompt: Supply TOP MFI value. Item: Humanized anti-SIRPα antibody hu025.060 (antibody, V domains shown, Humanized from C25) VH: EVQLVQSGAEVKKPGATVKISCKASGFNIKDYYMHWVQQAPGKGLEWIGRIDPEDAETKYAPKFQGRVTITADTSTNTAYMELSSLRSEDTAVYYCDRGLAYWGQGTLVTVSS VL: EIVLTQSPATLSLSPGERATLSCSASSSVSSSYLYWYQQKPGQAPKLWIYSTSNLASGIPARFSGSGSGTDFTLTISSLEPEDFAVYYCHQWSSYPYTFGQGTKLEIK
Completion: 61500

Prompt: Return reported TOP MFI. Input binder: Humanized anti-SIRPα antibody hu025.023 (antibody, V domains shown, Humanized from C25) VH: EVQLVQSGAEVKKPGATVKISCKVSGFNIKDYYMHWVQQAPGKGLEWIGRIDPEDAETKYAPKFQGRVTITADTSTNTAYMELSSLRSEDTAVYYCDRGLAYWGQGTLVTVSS VL: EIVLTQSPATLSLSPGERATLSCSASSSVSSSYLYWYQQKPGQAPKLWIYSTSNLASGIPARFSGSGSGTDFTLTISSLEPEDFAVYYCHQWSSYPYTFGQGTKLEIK
Completion: 57800
